Molecular target: panel of more than 300 wild-type and mutant kinases (313 kinase panel) (Homo sapiens)
Test: Kinase profiling in a biochemical assay panel (mobility shift assays and ELISA), %-inhibition at 1 μM; selectivity entropy
Details: kinase PIM1; 1 μM
Would you kindly list %-inhibition of PIM1 for each of these compounds?
Answers are plain numbers, in %.

Here's what some known entries look like.
[[record]]
compound = "COc1cc2nccc(Oc3ccc(NC(=O)C4(C(=O)Nc5ccc(F)cc5)CC4)cc3)c2cc1OC [cabozantinib]"
quantity_unit = "%"
reported = -10

[[record]]
compound = "N#CC[C@H](C1CCCC1)n1cc(-c2ncnc3[nH]ccc23)cn1 [ruxolitinib]"
quantity_unit = "%"
reported = -8

[[record]]
compound = "O=S(=O)(c1cccc2cnccc12)N1CCCNCC1 [fasudil]"
quantity_unit = "%"
reported = 3


Shift focus to the following entry.
Supply reported %-inhibition of PIM1 belonging to this compound: Cc1cn(-c2cc(NC(=O)c3ccc(C)c(Nc4nccc(-c5cccnc5)n4)c3)cc(C(F)(F)F)c2)cn1 [nilotinib]
8
